- target entity: SCRIB_1, Q14160
- Sequence (Q14160 718-814): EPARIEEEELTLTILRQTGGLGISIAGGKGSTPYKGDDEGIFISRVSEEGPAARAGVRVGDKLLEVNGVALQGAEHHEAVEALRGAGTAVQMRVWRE
- assay overview: holdup assay
- Set-up: key: below the threshold = too weak to quantify, mostly under pKd 3.1 to 4
- assay setup: plain residues with an end cap or a label only (N-terminal biotin on a linker: ado-ado)
Tick true if pKd is 4 or greater. Tick false if pKd is less than 4.

LESTTVGTSV [KARS1, Q15046]
false
NTANRRTTPV [CACNG2, Q9Y698]
false
VKRNSKETVV [MARCHF3, Q86UD3]
true
RQKEVRESKC [SCN8A, Q9UQD0]
true
QSGLYESEEL [MYOT, Q9UBF9]
false

Ask: Determine whether measured pKd meets or exceeds 4 for SRSVVESDEL [MYPN, Q86TC9]
Result: false

Ask: Could you verify whether the entry ARGPPRESEV [FAM110D, Q8TAY7] shows pKd of no less than 4?
Result: true

Ask: // inclusive: pKd at least 4? input: ARESQKVSHV [FAM110B, Q8TC76]
Result: false

Ask: Reported pKd reaches at least 4 for AAVENKVTDL [PLXNB1, O43157] ?
Result: true

Ask: Please indicate if the recorded pKd for KSRVAFFEEL [NF2, P35240] meets or exceeds 4.
Result: false

src = paper PMC9482650
